Tested on: MARIMO;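 also: after 48 h exposure read by CellTiter-Glo luminescence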
Assay: cell viability relative to vehicle control; higher = less cytotoxic
Conditions: 10 µM; SRSF2 genotype: SRSF2 wt/wt
METRIC NAME: cell viability

Worked cases, cell viability given:
q: Need cell viability of Cc1ccccc1N=Nc1ccc(NC(=O)c2ccnn2C)c(C)c1 , thanks.
a: 87.2%

q: // repeat for COc1ccc(NS(=O)(=O)c2sc3ccc(Cl)cc3c2C)cc1N1CCNCC1 and report
a: 99.2%

***
q: What value of measured cell viability is listed for c1coc(CNc2ncnc3[nH]cnc23)c1 [Kinetin (6-Furfuryladenine)] ?
a: 113%

q: Thanks! And Cc1ccnc(NS(=O)(=O)c2ccc(N)cc2)n1 [Sulfamerazine] ?
a: 104%

q: How about this compound: O=C(Oc1cccc(F)c1OC(=O)c1cccc(O)c1)c1cccc(O)c1
a: 88.4%

q: Try this compound too: CN1CCC(=C2c3ccccc3CCc3sccc32)CC1 [Pizotifen malate]
a: 83.8%

q: Thanks! And C[C@@H]1C(=O)O[C@H](C)[C@H]1C[C@@H](O)[C@](C)(O)[C@H]1CC[C@@]2(O)C3=CC(=O)[C@@H]4C[C@@H](O)[C@@H](O)C[C@]4(C)[C@H]3CC[C@]12C [Cyasterone] ?
a: 98.3%

q: // query: NS(=O)(=O)c1ccccc1 [Benzenesulfonamide]
a: 109%

q: Same read-out for COc1cc(N2CCC(N3CCN(C)CC3)CC2)ccc1Nc1ncnc(Nc2ccccc2S(=O)(=O)C(C)C)n1 ?
a: 48.3%

q: Record: C=CC[S+]([O-])C[C@H](N)C(=O)O (stereo partly drawn) [Alliin]
a: 96.5%

q: Queued: Cc1ccc(-c2nn(C(C)(C)C)c3ncnc(N)c23)cc1
a: 102%
